Quick list: pIC50 per entry.
Molecular target: Flag/GST-tagged recombinant human B-Raf (Homo sapiens, UniProt P15056)
Construct: Flag; GST; made in house; host or cells: Sf9 insect cells (B-Raf); E. coli (MEK1-GST)
Sequence (P15056 whole entry): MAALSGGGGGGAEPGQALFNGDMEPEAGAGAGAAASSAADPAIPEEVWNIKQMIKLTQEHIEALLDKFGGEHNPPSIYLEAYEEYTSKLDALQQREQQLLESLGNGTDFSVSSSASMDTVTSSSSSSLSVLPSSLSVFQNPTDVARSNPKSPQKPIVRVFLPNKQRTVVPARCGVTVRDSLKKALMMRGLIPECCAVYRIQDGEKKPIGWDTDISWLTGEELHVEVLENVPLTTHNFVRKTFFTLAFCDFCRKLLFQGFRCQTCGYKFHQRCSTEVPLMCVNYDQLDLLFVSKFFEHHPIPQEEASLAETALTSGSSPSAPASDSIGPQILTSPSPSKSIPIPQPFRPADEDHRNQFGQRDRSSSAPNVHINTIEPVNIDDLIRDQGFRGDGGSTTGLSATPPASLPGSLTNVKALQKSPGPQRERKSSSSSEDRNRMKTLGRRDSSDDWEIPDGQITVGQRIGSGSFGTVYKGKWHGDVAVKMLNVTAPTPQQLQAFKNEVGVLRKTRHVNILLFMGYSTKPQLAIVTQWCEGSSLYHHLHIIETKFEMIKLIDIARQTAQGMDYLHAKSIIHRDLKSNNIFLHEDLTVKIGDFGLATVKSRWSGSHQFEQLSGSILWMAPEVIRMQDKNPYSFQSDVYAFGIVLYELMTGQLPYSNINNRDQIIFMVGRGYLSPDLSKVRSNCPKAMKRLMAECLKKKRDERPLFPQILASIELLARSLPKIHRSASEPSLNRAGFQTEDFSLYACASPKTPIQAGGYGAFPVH
Assay: B-Raf kinase assay (phosphorylation of GST-MEK1, phospho-MEK1 antibody/Europium detection)
Format: biochemical
Settings: B-Raf IC50 Data for compounds of Formula A; read-out: Mean IC50
pIC50 is a log-scale quantity: -log10 of the concentration expressed in molar.

Study these solved cases before continuing.
Param readout= pIC50; system= Flag/GST-tagged recombinant human B-Raf (Homo sapiens, UniProt P15056); entry= Fc1cc(-c2ccnc3c(-c4cccc5[nH]ncc45)c(-c4ccncc4)nn23)ccc1N1C[C@@H]2C[C@H]1CN2 [Example 185] ; returns value. 8.77

Param readout= pIC50; system= Flag/GST-tagged recombinant human B-Raf (Homo sapiens, UniProt P15056); entry= COc1cccc(-c2c(-c3ccncc3)nn3c(-c4ccc(N5C[C@@H]6C[C@H]5CN6)cc4)ccnc23)c1 [Example 28] ; returns value. 7.80

Param readout= pIC50; system= Flag/GST-tagged recombinant human B-Raf (Homo sapiens, UniProt P15056); entry= CCNC(=O)N1C2CCC1CC(c1ccnc3c(-c4cccc5[nH]ncc45)c(-c4ccncc4)nn13)C2 (stereo not shown) [Example 118] ; returns value. 8.17

More entries:
Param readout= pIC50; system= Flag/GST-tagged recombinant human B-Raf (Homo sapiens, UniProt P15056); entry= CCOC(=O)N1C2CCC1CC(c1ccnc3c(-c4ccc(Cl)c(OC)c4)c(-c4ccncc4)nn13)C2 (stereo not shown) [Example 10] ; returns value. 7.27
